molecular target: Dual specificity protein kinase CLK4 (Homo sapiens); experiment: Confirmation Assay for Inhibitors of Clk4 (Kinase-Glo Assay): KU probe; conditions: recombinant Clk4, Kinase-Glo ATP luminescence; series mostly up to 76.9 µM
Inconclusive results are not listed. Calls of active or inactive are those of the source. Calls come from the whole dose curve; as a rule, active = well fitted inhibition curve with a large enough effect; inconclusive = small, poorly fitted or top-dose-only effect; inactive = flat fitted curve, though single readings scatter.
Tick one outcome: active, inactive

The following molecules have reported results that may help.
molecule	assayed system	label
c1nc(NCC2CCCCO2)c2cc(-c3ccc4c(c3)OCO4)ccc2n1 (stereo unspecified)	Dual specificity protein kinase CLK4 (Homo sapiens)	active
Brc1ccc(CNc2nccc(-c3ccc4c(c3)OCO4)n2)cc1Br	Dual specificity protein kinase CLK4 (Homo sapiens)	active
Clc1ccc(CNc2ccnc(-c3cccnc3)n2)cc1	Dual specificity protein kinase CLK4 (Homo sapiens)	active

# input Could you please tell me the result logged for `COc1ccc(CNc2ccnc(-c3c(C)noc3C)n2)cc1` in this assay?
# output inactive

# input Could you please tell me the result logged for CN(CC1CCCCO1)c1ncnc2ccc(-c3ccc4c(c3)OCO4)cc12 (stereo unspecified) in this assay?
# output active

# input Could you please tell me the result logged for `Cc1csc(CNc2ncnc3ccc(-c4ccc(CO)o4)cc23)n1` in this assay?
# output active

# input Could you please tell me the result logged for `Cc1ccc(CNc2ccnc(-c3cccc(C#N)c3)n2)cc1` in this assay?
# output active

# input Could you please tell me the result logged for c1nc(NCC2CCOC2)c2cc(-c3ccc4c(c3)OCO4)ccc2n1 (stereo unspecified) in this assay?
# output active

# input Could you please tell me the result logged for `c1cc(-c2ccoc2)nc(-c2ccc3c(c2)OCO3)n1` in this assay?
# output active
